# target_system: human orexin-1 receptor (Homo sapiens (Human))
# Sequence (O43613 whole entry): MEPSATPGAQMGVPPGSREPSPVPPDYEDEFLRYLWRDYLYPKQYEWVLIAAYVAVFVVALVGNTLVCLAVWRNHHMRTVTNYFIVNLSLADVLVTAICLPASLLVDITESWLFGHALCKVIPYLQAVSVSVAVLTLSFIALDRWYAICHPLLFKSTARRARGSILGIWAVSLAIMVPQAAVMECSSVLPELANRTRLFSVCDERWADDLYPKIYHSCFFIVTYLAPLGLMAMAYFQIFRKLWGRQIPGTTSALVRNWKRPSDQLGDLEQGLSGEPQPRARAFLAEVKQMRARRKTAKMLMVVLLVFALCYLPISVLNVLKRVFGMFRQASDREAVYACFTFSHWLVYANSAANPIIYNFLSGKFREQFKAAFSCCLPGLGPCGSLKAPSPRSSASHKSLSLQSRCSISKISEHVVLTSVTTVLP
# protocol_text: In vitro assay: intracellular calcium measurements (FLIPR), antagonistic activity
# measurement_context: CHO cells expressing human orexin-1 receptor, orexin-A agonist, geometric mean, read-out: IC50 Ox1
assay_readout: IC50 (nM)

Use these answered entries as a reference point.
compound	IC50 (nM)
CSc1ccc2nc([C@@H]3CCCN3C(=O)c3cnc(C)nc3-c3ccccc3)[nH]c2c1	76
CSc1cccc2nc([C@@H]3CCCN3C(=O)c3ccccc3-n3nccn3)[nH]c12	279
Cc1c(Cl)ccc2[nH]c([C@]3(C)CCCN3C(=O)c3cc(F)ccc3-c3ccccc3)nc12	13
C=C1C[C@@H](c2nc3cc(Cl)c(C(F)(F)F)cc3[nH]2)N(C(=O)c2cc(F)ccc2-n2nccn2)C1	58
Cc1nc(C(=O)N2CCCC2c2nc3cc(C(F)(F)F)c(F)cc3[nH]2)c(-c2ccccc2)s1 (centres unmarked)	32

(I) CSc1cccc2nc([C@@H]3CCCN3C(=O)c3cnc(C)nc3-c3ccc(Br)c(Cl)c3)[nH]c12
(II) C=C1C[C@@H](c2nc3cc(OC)ccc3[nH]2)N(C(=O)c2ncsc2-c2cccc(Cl)c2)C1
Which one would you say has the larger IC50 value: I , or II ? State your choice using its label. II
